assay: Cytotoxicity against human HCT-116 cells assessed as cell viability at 5 uM incubated for 24 hrs by CCK-8 assay relative to control; assay type: toxicity, cell-based; conditions: read-out: Activity
property: viability at 24 h, 5 µM

COC(=O)[C@H](Cc1ccc(O)cc1)n1[se]c2ccccc2c1=O; 86.2%
COC(=O)[C@H](CO)n1[se]c2ccccc2c1=O; 86.2%
COC(=O)[C@H](CCCCNC(=O)OC(C)(C)C)n1[se]c2ccccc2c1=O; 86.2%
CC(=O)OC[C@H]1O[C@@H](n2cnc3c(-n4[se]c5ccccc5c4=O)ncnc32)[C@H](OC(C)=O)[C@@H]1OC(C)=O; 81%

Record O=C(O)c1ccc(-n2[se]c3ccccc3c2=O)cc1 , field viability at 24 h, 5 µM: 86.2%

Looking up O=c1c2ccccc2[se]n1-c1cn[nH]c1 , I found its viability at 24 h, 5 µM recorded as 71.5%

Memo: O=c1c2ccccc2[se]n1CCO , reported viability at 24 h, 5 µM: 86.2%

Noted for CNC(=O)c1cc(Oc2ccc(-n3[se]c4ccccc4c3=O)cc2)ccn1 : its viability at 24 h, 5 µM reads 86.2%

---

Each entry below lists one item and its recorded log10(IC50) value.
assay: Covalent allosteric inhibition of recombinant Escherichia coli beta-glucuronidase using PNPG as substrate incubated for 30 mins by absorbance based microplate reader assay
Recorded IC50 (log10, nM)

Solved entries (count: 6):
COC(=O)[C@H](Cc1ccc(O)cc1)n1[se]c2ccccc2c1=O; 1.33
CN1CCC(n2[se]c3ccccc3c2=O)CC1; 1.77
COC(=O)[C@H](CCCCNC(=O)OC(C)(C)C)n1[se]c2ccccc2c1=O; 1.82
Cc1nnc(-n2[se]c3ccccc3c2=O)o1; 2.06
O=c1c2ccccc2[se]n1CC(F)(F)F; 1.89
Clc1ccc2c(c1)C(N1CCNCC1)=Nc1ccccc1O2 [AMOXAPINE]; 2.31

Input CC(=O)OC[C@H]1O[C@@H](n2cnc3c(-n4[se]c5ccccc5c4=O)ncnc32)[C@H](OC(C)=O)[C@@H]1OC(C)=O . Output log10(IC50): 1.87

According to the records, this compound O=c1c2ccccc2[se]n1CCO displays log10(IC50) of 1.26

Measured log10(IC50) of CNC(=O)c1cc(Oc2ccc(-n3[se]c4ccccc4c3=O)cc2)ccn1 : 2.65

According to the records, this compound O=C(O)c1ccc(-n2[se]c3ccccc3c2=O)cc1 displays log10(IC50) of 1.75

---

test system: Escherichia coli; experiment: Covalent allosteric inhibition of recombinant Escherichia coli beta-glucuronidase using PNPG as substrate at 10 uM incubated for 30 mins by absorbance based microplate reader assay relative to control
property: inhibition

COC(=O)[C@H](CCCCNC(=O)OC(C)(C)C)n1[se]c2ccccc2c1=O; 94.4%
CC(=O)OC[C@H]1O[C@@H](n2cnc3c(-n4[se]c5ccccc5c4=O)ncnc32)[C@H](OC(C)=O)[C@@H]1OC(C)=O; 98.8%
O=c1c2ccccc2[se]n1-c1nnc(C(F)(F)F)s1; 93.7%
COC(=O)c1ccc2c(=O)n(-c3cccc4cccnc34)[se]c2c1; 98.4%
O=c1c2ccccc2[se]n1C1CCCCC1; < 90%

Next compound, inhibition to be filled in.
Documented inhibition of O=c1[nH][se]c2ccccc12 : 72.1%
